System: SNB-75 CNS
Assay: NCI tumour cell line growth inhibition, 48 h
RECORDED ENDPOINT: TGI

COMPOUND: Cn1ncc2cc(-c3cnc(N)c(Cl)c3N3CCC4(CCNC4=O)CC3)ccc21
TGI: 77.8 µM
--
COMPOUND: O=C(CC12CC3CC(CC(C3)C1)C2)NCCOCCOCCNC(=O)c1cc2c(o1)C(=O)c1ccccc1C2=O
TGI: 2.9 µM
--
COMPOUND: COc1cc2c(cc1O)[C@H](C)C(c1ccc(Cl)cc1)O2 (stereo not given in full)
TGI: 43.3 µM
--
COMPOUND: COc1c2cc(C(C)(C)C)cc1CSCc1cc(C(C)(C)C)cc(c1OC)CCCCC2
TGI: > 50 µM
--
COMPOUND: CSc1n[nH]c(N)c1C(=O)Nc1ccc(Cl)cc1
TGI: > 100 µM

# input Name the recorded TGI for CN(C(=O)C1CCCCC1)c1ccccc1I(=O)=O .
# output > 100 µM

# input Which TGI is listed for COC(=O)OC[C@H]1O[C@@H](n2cc(C)c(=O)[nH]c2=O)CC1OC(=O)OC (stereo not given in full) ?
# output > 100 µM

# input # query: TGI of entry CC(=O)[CH-]C(=O)c1ccccc1.CC(=O)[CH-]C(=O)c1ccccc1.[Nd+3].[OH-].[OH3+]
# output > 100 µM

# input Quick one: TGI of Cc1c2c(n3c(nc4ccccc43)c1C#N)N(c1ccc(Cl)cc1)CC2 ?
# output > 100 µM

# input So what's the measured TGI for this one? COc1ccc(-c2cc(C(=O)Nc3cccc(C(F)(F)F)c3)[nH]c(=S)n2)cc1
# output > 100 µM
